method: reversal of MRP1-mediated doxorubicin resistance, pilot screen, H69AR cells, doxorubicin co-treatment (AID 601)
test.parameters: H69AR cells + 2 uM doxorubicin, CellTiter-Glo, 72 h; measured here: viability with 2 uM doxorubicin; at 10 µM; stronger effect = lower value
reported.metric: viability (%)
Report the figure in % without appending any unit label.

# viability (compound: Nc1ccc(C(=O)OCCCc2nc3ccccc3[nH]2)cc1 ) is 97.4

// recorded viability for Cc1cc(C)c(OCC(=O)Nc2ccc3c(c2)OCO3)cc1C : 88

Short answer for C=CCn1c(SCC(=O)Nc2ccccc2OC)nnc1-c1ccco1 : viability was 84.5

# viability (compound: CN(C)c1ccc(CNn2cnnc2)cc1 ) is 105

Given item O=C1CSC(c2cn(-c3ccccc3)nc2-c2ccccc2)N1Cc1ccco1 (configuration not stated) , the value recorded as its viability is 70.6

Cc1nc2sc(C#N)c(N)c2c2c1CCCC2 has a reported viability of 108

So for CC1=C(C(=O)OCCOC(C)C)C(c2cc3c(cc2Br)OCO3)C2=C(CCCC2=O)N1 (configuration not stated) , the logged viability turned out to be 78.9

The recorded viability for CCCn1cnc2c(c1=O)c1nc3ccccc3nc1n2Cc1ccccc1OC is 88.2

The recorded viability for CC(=O)Nc1sc2c(c1CN1CCN(c3ccccn3)CC1)CCCC2 is 83.3

Please fill in: viability reported for CCOc1ccccc1OCC(=O)Nc1nnc(COC)s1 = 93.3

Data point: Cc1oc(-c2ccccc2F)nc1CS(=O)(=O)CC(=O)NCc1ccco1 ; viability = 86.8

The value of viability measured for the compound CCOC(=O)c1c(C)oc2ccc(OCC(=O)N(CC)CC)cc12 turned out to be 97.2
